- target: filamentous actin (F-actin) from rabbit skeletal muscle (rabbit, UniProt P68135 1-377)
- test summary: BLI; F-actin immobilised on Streptavidin (SA) biosensors through LAbio peptide; αcat-ABD in solution at various concentrations; 26 °C, Octet384; 2 mM Tris-HCl pH 8.0, 0.2 mM ATP, 0.5 mM DTT, 0.1 mM CaCl2, 50 mM KCl, 2 mM MgCl2, 0.1% BSA, 0.02% Tween-20; 2:1 heterogeneous ligand model
- condition details: both partners purified
Some binders, each annotated with its measured KD2 (2:1 heterogeneous ligand model).
Respond numerically; units are µM and should not be typed.

Solved cases below.
αEcat-ABD 3A (L785A, I792A and V796A together) (domain or fragment, source: E. coli BL21-CodonPlus, purified (glutathione-sepharose, thrombin cleavage, Superdex 75); not shown: GST, N-terminal, cleaved) SRTSVQTEDDQLIAGQSARAIMAQLPQEQKAKIAEQVASFQEEKSKLDAEVSKWDDSGNDIIVLAKQMCMIMMEMTDFTRGKGPLKNTSDVISAAKKIAEAGSRMDKLGRTIADHCPDSACKQDLLAYLQRIAAYCHQLNACSKAKAEVQNLGGELVVSGVDSAMSLIQAAKNLMNAVVQTVKASYVASTKYQKSQGMASLNLPAVSWKMKAPEKKPLVKREKQDETQTKIKRASQKKHVNPVQALSEFKAMDSI
6.1
αE-catenin actin-binding domain, wild type (αEcat-ABD-WT; residues 652-906) (domain or fragment, source: E. coli BL21-CodonPlus, purified (glutathione-sepharose, thrombin cleavage, Superdex 75); not shown: GST, N-terminal, cleaved) SRTSVQTEDDQLIAGQSARAIMAQLPQEQKAKIAEQVASFQEEKSKLDAEVSKWDDSGNDIIVLAKQMCMIMMEMTDFTRGKGPLKNTSDVISAAKKIAEAGSRMDKLGRTIADHCPDSACKQDLLAYLQRIALYCHQLNICSKVKAEVQNLGGELVVSGVDSAMSLIQAAKNLMNAVVQTVKASYVASTKYQKSQGMASLNLPAVSWKMKAPEKKPLVKREKQDETQTKIKRASQKKHVNPVQALSEFKAMDSI
0.3

get_value(item= αEcat-ABD I792A (domain or fragment, source: E. coli BL21-CodonPlus, purified (glutathione-sepharose, thrombin cleavage, Superdex 75); not shown: GST, N-terminal, cleaved) SRTSVQTEDDQLIAGQSARAIMAQLPQEQKAKIAEQVASFQEEKSKLDAEVSKWDDSGNDIIVLAKQMCMIMMEMTDFTRGKGPLKNTSDVISAAKKIAEAGSRMDKLGRTIADHCPDSACKQDLLAYLQRIALYCHQLNACSKVKAEVQNLGGELVVSGVDSAMSLIQAAKNLMNAVVQTVKASYVASTKYQKSQGMASLNLPAVSWKMKAPEKKPLVKREKQDETQTKIKRASQKKHVNPVQALSEFKAMDSI , readout=KD2 (2:1 heterogeneous ligand model)) returns 0.6
